Below, each entry is listed alongside its reported TGI.
test system: HS 578T breast; experiment: NCI tumour cell line growth inhibition, 48 h
Measured Parameter: TGI

Compound: O=Cc1cc2c(s1)C(=O)c1sccc1C2=O
Measured Parameter: TGI
Result: 0.427 µM

Compound: CN1CCN(CC(=O)Nc2cccc3ccccc23)CC1
Measured Parameter: TGI
Result: > 100 µM

Compound: O=C(O)C(Cc1c[nH]c2ccccc12)C(=O)NO (stereo unspecified)
Measured Parameter: TGI
Result: > 100 µM

Compound: O=C1c2ccccc2CCC1C(O)(C(F)(F)F)C(F)(F)F (stereo unspecified)
Measured Parameter: TGI
Result: > 100 µM

Compound: Cc1ccc(S(=O)(=O)NC(=O)Nc2ccc(C(=O)O)c(O)c2)cc1
Measured Parameter: TGI
Result: > 100 µM

Compound: Oc1ccc(N=Cc2ccc(C=Nc3ccc(O)cc3)cc2)cc1
Measured Parameter: TGI
Result: 60.1 µM

Compound: COC(=O)C1=C(O)[C@H](C(=O)OC)C2(O)[C@@H](C(=O)OC)[C@H]1C[C@@H](c1ccc(OC(=O)n3ccnc3)cc1)[C@@H]2C(=O)OC
Measured Parameter: TGI
Result: 41.3 µM

Compound: O=C(CON1C(=O)c2ccccc2C1=O)c1ccccc1
Measured Parameter: TGI
Result: > 100 µM

Compound: CC(=O)c1cc2c(c(O)c1C)C(=O)C(=O)c1c(O)cccc1-2
Measured Parameter: TGI
Result: 1.3 µM

Compound: O=C1c2ccc(O)cc2OC(c2cc(O)c(O)c(O)c2)C1O (stereo unspecified)
Measured Parameter: TGI
Result: > 100 µM

Compound: CN([O-])c1nc(N(C)[O-])nc(N2CCOCC2)n1.CN([O-])c1nc(N(C)[OH2+])nc(N2CCOCC2)n1.[Fe+3]
Measured Parameter: TGI
Result: > 100 µM

Compound: COc1c2c(cc3nc4ccccc4nc13)CC[C@H](NC(C)=O)c1cc(=O)c(SC)ccc1-2
Measured Parameter: TGI
Result: 0.7 µM

Compound: COc1ccc(C=Nc2c(O)ccc3ccccc23)cc1OC
Measured Parameter: TGI
Result: > 100 µM

Compound: CCOC(=O)C(NC(=O)CC(C)C)(NC(C)C)C(F)(F)F (stereo unspecified)
Measured Parameter: TGI
Result: > 100 µM

Compound: CNC(=O)N(C1=NCC(C)S1)c1ccc(C)c(C)c1 (stereo unspecified)
Measured Parameter: TGI
Result: > 100 µM

Compound: Cn1cnc([N+](=O)[O-])c1[Se]c1ncnc2nc[nH]c12
Measured Parameter: TGI
Result: 39.9 µM

Compound: COc1cccc2c(Nc3ccc(S(=O)(=O)Nc4ncccn4)cc3)c3ccc([N+](=O)[O-])cc3nc12
Measured Parameter: TGI
Result: > 100 µM

Compound: CCN(CC)c1ccc2cc(-c3nc(-c4ccccc4)n[nH]3)c(=O)oc2c1
Measured Parameter: TGI
Result: > 100 µM

Compound: COc1ccc(CCn2nccc2C)cc1
Measured Parameter: TGI
Result: > 100 µM

Compound: CC(C)c1cc(C(F)(F)F)nc(NNc2nc(C(C)C)cc(C(F)(F)F)n2)n1
Measured Parameter: TGI
Result: > 100 µM

Compound: Cc1ccc2c(c1)C(=O)c1[nH]c3ccc(F)cc3c1CO2
Measured Parameter: TGI
Result: 58.1 µM

Compound: COC1CC(OC2C(C)OC(OC3C(C)OC(OC4C(C)OC(O[C@H]5CC[C@@]6(C)C(=CC[C@]7(O)[C@@H]6C[C@@H](OC(=O)/C=C/c6ccccc6)[C@@]6(C)[C@]7(O)CC[C@@]6(O)C(C)=O)C5)CC4OC)CC3OC)CC2OC)OC(C)C1O (stereo partly specified)
Measured Parameter: TGI
Result: > 12.5 µM

Compound: O=c1[nH]c(=S)[nH]c2c1C(c1ccc(Cl)cc1)c1c([nH]c(=S)[nH]c1=O)O2
Measured Parameter: TGI
Result: > 100 µM

Compound: Cn1cc(C2=C(c3cn(CCSC(=N)N)c4ccccc34)C(=O)NC2=O)c2ccccc21
Measured Parameter: TGI
Result: 10.4 µM

Compound: CCc1n[nH]c(=O)n1NC(=O)CCCC(=O)O
Measured Parameter: TGI
Result: > 100 µM

Compound: O=c1c2cccnc2[nH]c2ccc3[nH]ncc3c12
Measured Parameter: TGI
Result: > 10 µM

Compound: CC(C)(C)OC(=O)Nc1nnc(S(N)(=O)=O)s1
Measured Parameter: TGI
Result: > 100 µM

Compound: O[N+]1=CC=CCC1=S.On1ccccc1=S.[Zn]
Measured Parameter: TGI
Result: > 30.7 µM

Compound: NC(CSS(=O)(=O)c1ccccc1)C(=O)O (stereo unspecified)
Measured Parameter: TGI
Result: > 10 µM

Compound: Cc1ccc(C2=C(c3ccc(C)cc3)C3(c4ccc(C)cc4)[C@@H](C#N)[C@H](C#N)C2(c2ccc(C)cc2)S3=O)cc1 (stereo partly specified)
Measured Parameter: TGI
Result: > 100 µM

Compound: FC(F)(F)c1ccc(-c2cncn2-c2ccccc2)cc1
Measured Parameter: TGI
Result: 47.8 µM

Compound: C[C@@H](O)[C@H]1C(=O)N2C(C(=O)O)=C(SCCN=CN)C[C@H]12
Measured Parameter: TGI
Result: 28.3 µM

Compound: CN(C)CCNc1ccc(NCCN(C)C)c2c1C(=O)c1ncsc1C2=O
Measured Parameter: TGI
Result: 50.3 µM

Compound: O=C1CC(c2ccccc2Cl)Oc2ccccc21 (stereo unspecified)
Measured Parameter: TGI
Result: > 100 µM

Compound: CCCCc1ccc(Nc2nc(=S)c3ncn(COCCO)c3[nH]2)cc1
Measured Parameter: TGI
Result: > 100 µM

Compound: COc1ccc(OC)c(N2C(=O)/C(=C\c3ccccc3)SC2c2cc(OC)c(OC)c(OC)c2)c1 (stereo unspecified)
Measured Parameter: TGI
Result: > 100 µM
